Biological target: T1, human CD3 expressed on cells (human, UniProt P07766 23-207; P04234 22-171; P09693 23-182)
T1 construct: whole, on cells; CD3 complex on Jurkat cells and on human primary T cells
T1 sequence (P07766 23-207, chain 1 of 3): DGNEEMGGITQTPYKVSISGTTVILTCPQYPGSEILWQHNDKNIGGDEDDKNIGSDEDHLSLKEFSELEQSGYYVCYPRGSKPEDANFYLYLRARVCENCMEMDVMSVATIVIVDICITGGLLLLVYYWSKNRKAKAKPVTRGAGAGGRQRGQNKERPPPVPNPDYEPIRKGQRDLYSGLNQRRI
T1 sequence (P04234 22-171, chain 2 of 3): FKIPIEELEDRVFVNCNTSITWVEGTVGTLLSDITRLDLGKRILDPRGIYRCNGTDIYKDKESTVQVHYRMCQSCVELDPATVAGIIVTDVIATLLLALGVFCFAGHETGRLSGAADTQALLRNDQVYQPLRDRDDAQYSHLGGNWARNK
T1 sequence (P09693 23-182, chain 3 of 3): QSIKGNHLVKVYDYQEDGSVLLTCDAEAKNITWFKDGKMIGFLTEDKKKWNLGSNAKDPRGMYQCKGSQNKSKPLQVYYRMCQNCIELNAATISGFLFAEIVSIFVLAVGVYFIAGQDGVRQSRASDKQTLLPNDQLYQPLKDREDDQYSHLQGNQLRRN
Experiment: flow cytometry, 25 nM
measurement.name: Human primary T Cell Binding (FOI)
# unit: FOI | format: bare number

Please review the entries below; each comes with its answer.
| binder | unit.symbol | Human primary T Cell Binding (FOI) |
| --- | --- | --- |
| mAb 100 (antibody, V domains shown) VH: QVQLVESGGGVVQPGRSLRLSCVASGFTFRGYGMHWVRQAPGKGLEWVAIIYYDGKNKYYADSVKGRFTISRDNSKNTLYLQMNSLRVEDTALYYCARGGGYNWFDPWGQGTLVTVSS VL: DIQMTQSPSSLSASVGDRVTITCRASQSISTYLNWYQQKPGKAPKLLIYTASSLQSGVPSRFSGSGSGTVFTLTISSLQPEDFAIYYCQRSYSPPFTFGPGTRLDIK | FOI | 229 |
| mAb 46 (antibody, V domains shown) VH: EGQLVESGGGLVQPGGSLRLSCVASGFTLSSYTLNWVRQAPGKGLEWVSYISSTSRTIYYSDSVKGRFTISRDNAKNSLYLQMNSLRDEDTALYYCAREDYYDSSGFDYWGQGTLVTVSS VL: AIRMTQSPSSFSASTGDRVTITCRASQGISSYLAWYQQKPGKAPKLLIYTASTLQSGVPSRFSGSGSGTDFTLTIRSLQSEDFATYYCQQYYSYPRTFGQGTKVEIK | FOI | 96.9 |
| mAb 77 (antibody, V domains shown) VH: EVQLVESGGGLVQPGGSLRLSCAASGFTFSNYWMSWVRQAPGKGLEWVANIKQDGSEKYYVDSVRGRFTISRDNAKKSLYLQMNSLRAEDTAVYYCARDNSNYAYWYFDIWGRGTLVTVSS VL: DIQMTQSPSTLSVSVGDRVTITCRASQSIRKWLAWYQQKPGKAPKLLIFKASSLESGVPSRFSGSGSGTEFTLTISSLQPDDFATYYCQQYDTYSRTFGQGTKVEIK | FOI | 125 |
| mAb 114 (antibody, V domains shown) VH: EVQLVESGGGLVKTGGSLRLSCVASGFSFKKAWMNWVRQAPGKGLEWVGRIKRNTDGGPADYAAPVKGRFTLSRDDSKKTLYLQMNSLKTEDTAVYYCTTLDSSSWYVGYYYMDVWGKGTTVTVSS VL: DIQMTQSPSSVSASVGDRVIITCRASQDINNWLAWYLQRPGKAPKLLIYAASSLQSGVPSRFSGSGSGTDFTLTIGSLQPEDFATYYCQQAHSLPITFGQGTRLEIQ | FOI | 179 |

Let us examine a further case.
Can you share its Human primary T Cell Binding (FOI)? I mean this binder: mAb 138 (antibody, V domains shown) VH: QVLLVQSGPEVKKPGASVKVSCKASGYTFTDYYLHWVRQAPGQGLDWMGWINPKSGGTRNAQKFQGRVTMTRDTSISTAYMDLTRLRSDDTAVYYCARVGGELLFDYWGQGTLVTVSS VL: DIVMTQSPLSLSVTPGEPASISCRSSQSLLHSDGYNYLDWFLQKPGQSPHLLIFLGSNRASGVPDRFSGSGSGTDFTLKISRVEAEDVGIYYCMQALQTPLTFGGGTKVEIK
0.796

The reported measurements were obtained from patent US20230295310A1.
